experimental system: C-IAP1 BIR3 (Homo sapiens)
Construct: 0.2 μM C-IAP1 BIR3
test name: Fluorescence polarization peptide binding assay, C-IAP1 BIR3
measurement conditions: determined from the IC50 values (procedure of Keating et al.)
measurement name: pKi
Scale for pKi: -log10 of concentration given in mol/L; no unit attached.

Below, 8 compounds whose answers are already recorded.
CN[C@@H](C)C(=O)N[C@H](C(=O)N[C@H](C(=O)NCC(c1ccccc1)c1ccccc1)C(F)(F)F)C1CCCCC1 [Compound 8]	6.32
CN[C@@H](C)C(=O)N[C@H](C(=O)N[C@H](C(=O)NCC(c1ccccc1)c1ccccc1)C(C)(C)SCNC(C)=O)C1CCCCC1 [Compound 18]	6.40
CN[C@@H](C)C(=O)N[C@H](C(=O)N(C)[C@H](C(=O)Nc1snnc1-c1ccccc1)C(C)(C)C)C1CCCCC1 [Compound 24]	6.69
CN[C@@H](C)C(=O)N[C@H](C(=O)N[C@H](C(=O)Nc1snnc1-c1ccccc1)C(C)(C)F)C1CCCCC1 [Compound 6]	7.70
CN[C@H](C)C(=O)N[C@@H](C(=O)N[C@@H](C(=O)NCC(c1ccccc1)c1ccccc1)C(C)(C)C)C1CCCCC1 [Compound 15]	6.25
CN[C@@H](C)C(=O)N[C@H](C(=O)N[C@H](C(=O)Nc1snnc1-c1ccccc1)C(C)(C)OC)C1CCCCC1 [Compound 2]	7.52
CN[C@@H](C)C(=O)N[C@H](C(=O)N[C@H](c1nc(-c2ccc(F)c3ccccc23)cs1)C(C)(C)SCc1ccc(OC)cc1)C1CCCCC1 [Compound 22]	6.45
CN[C@@H](C)C(=O)N[C@H](C(=O)N(C)[C@H](C(=O)Nc1snnc1-c1ccccc1)C(C)C)C1CCCCC1 [Compound 14]	7.66

Task: # returns recorded pKi (system: C-IAP1 BIR3 (Homo sapiens)) for CN[C@@H](C)C(=O)N[C@H](C(=O)N[C@H](C(=O)Nc1snnc1-c1ccccc1)C(C)(C)SC)C1CCCCC1 [Compound 20]
Result: 7.68

Task: Further, for CN[C@@H](C)C(=O)N[C@H](C(=O)N[C@H](C(=O)Nc1snnc1-c1ccccc1)C1(C)CCOCC1)C1CCCCC1 [Compound 3] ?
Result: 7.42

---

experimental system: C-IAP1 BIR3 (Homo sapiens, UniProt Q13490)
Construct: 0.2 μM C-IAP1 BIR3
Sequence (Q13490 253-363 limits assumed): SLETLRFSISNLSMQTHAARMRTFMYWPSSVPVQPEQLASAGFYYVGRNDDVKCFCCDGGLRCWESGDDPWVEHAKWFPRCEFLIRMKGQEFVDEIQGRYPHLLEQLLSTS
test name: Fluorescence polarization peptide binding assay, C-IAP1 BIR3
measurement conditions: 0.2 μM C-IAP1 BIR3, 5 nM AVP-diPhe-FAM probe, one hour incubation
measurement name: IC50 (nM)
Provide the reading as a plain figure in nM.

CN[C@@H](C)C(=O)N[C@H](C(=O)N[C@H](C(=O)NCC(c1ccccc1)c1ccccc1)C(C)(C)O)C(C)C [Compound 12]	6880
CN[C@@H](C)C(=O)N[C@H](C(=O)N[C@H](C(=O)Nc1snnc1-c1ccccc1)C(C)(C)F)C1CCCCC1 [Compound 6]	131
CN[C@@H](C)C(=O)N[C@H](C(=O)N[C@H](C(=O)Nc1snnc1-c1ccccc1)C(C)(C)S(C)(=O)=O)C1CCCCC1 [Compound 10]	700
CN[C@@H](C)C(=O)N[C@H](C(=O)N[C@H](C(=O)Nc1snnc1-c1ccccc1)C(C)(C)SC)C1CCCCC1 [Compound 20]	133
CN[C@@H](C)C(=O)N[C@H](C(=O)N(C)[C@H](C(=O)Nc1snnc1-c1ccccc1)C(C)(C)SC)C1CCCCC1 [Compound 23]	155

Proceeding to the next compound to report its IC50.
Task: Query: IC50; subject: CN[C@@H](C)C(=O)N[C@H](C(=O)N[C@H](C(=O)NCC(c1ccccc1)c1ccccc1)C(C)(C)SCNC(C)=O)C1CCCCC1 [Compound 18]
Result: 2550
